# test_protocol: Plasma and brain levels after i.v. dosing (blood-brain barrier)
# Assay type: in vivo, rat
# condition_notes: male, SD, rat, plasma, intravenous; 5 mg/kg, i.v., 1 h; read-out: Plasma
measured_attribute: concentration at 1 h (ng/mL)

INSERT INTO results (compound, measured_attribute, observed_result) VALUES
  ('CC1(C)CCC2(C(=O)NO)CCC3(C)C(C(=O)C=C4C5(C)C=C(C#N)C(=O)C(C)(C)C5CCC43C)C2C1 (stereo not shown)', 'concentration at 1 h', 198);

====

# test_protocol: Pharmacokinetics in male rats (LC-MS/MS)
# Assay type: in vivo
# condition_notes: SD, rat, plasma, iv, 5 mg/kg
measured_attribute: C0

INSERT INTO assay_data (compound, observed_result) VALUES
  ('CC1(C)CCC2(C(=O)NO)CCC3(C)C(C(=O)C=C4C5(C)C=C(C#N)C(=O)C(C)(C)C5CCC43C)C2C1 (stereo not shown) [Cpd.51]', '3410 ng/mL');

====

# test_protocol: Plasma and brain levels after i.v. dosing (blood-brain barrier)
# Assay type: in vivo, rat
# condition_notes: male, SD, rat, brain, intravenous; 5 mg/kg, i.v., 0.25 h; read-out: Brain
measured_attribute: concentration at 0.25 h (ng/g)

INSERT INTO results (molecule, measured_attribute, observed_result) VALUES
  ('CC1(C)CCC2(C(=O)NO)CCC3(C)C(C(=O)C=C4C5(C)C=C(C#N)C(=O)C(C)(C)C5CCC43C)C2C1 (stereo not shown)', 'concentration at 0.25 h', 86.7);

====

# test_protocol: Pharmacokinetics in male rats (LC-MS/MS)
# Format: in vivo
# condition_notes: SD, rat, plasma, iv, 5 mg/kg
measured_attribute: half-life (h)

INSERT INTO assay_data (compound, scale_unit, observed_result) VALUES
  ('CC1(C)CCC2(C(=O)NO)CCC3(C)C(C(=O)C=C4C5(C)C=C(C#N)C(=O)C(C)(C)C5CCC43C)C2C1 (stereo not shown)', 'h', 1.49);
